system: K562; experiment: Anticancer activity against human K562 cells assessed as cell growth promotion at 10^-5 M after 48 hrs by SRB assay relative to control; format: functional
Quick list: Activity per entry.
Give just the numeric value; % need not be written.

Examples from the recorded data:
>>> endpointresult("O=C(O)c1ccc(-n2c(-c3ccco3)nc3ccccc3c2=O)cc1")
98.25
>>> endpointresult("Oc1ccc(/C=C/c2nc3ccccc3nc2SCc2nc3ccccc3[nH]2)cc1")
107
>>> endpointresult("O=C(Nc1ccccc1C(=O)Nc1ccc(/C=C/c2ccc(O)cc2)cc1)c1ccccc1")
40.21
>>> endpointresult("NS(=O)(=O)c1ccc(NC(=O)c2ccccc2NC(=O)c2ccco2)cc1")
95.39
>>> endpointresult("Brc1cccc(/C=C/c2nc3ccccc3nc2SCc2nc3ccccc3[nH]2)c1")
79.2

Give the measured Activity of "COc1cc(/C=C/c2ccc(NC(=O)c3ccccc3NC(=O)c3ccccc3)cc2)ccc1O" .
96.88

Then this molecule: "Oc1ccccc1/C=C/c1nc2ccccc2nc1SCc1nc2ccccc2[nH]1"
77.33

Note, next up: "O=C(Nc1ccccc1C(=O)Nc1ccc(/C=C/c2ccc(Cl)cc2)cc1)c1ccco1"
95.66

Moving on to the next molecule: "CN(C)c1ccc(/C=C/c2nc3ccccc3nc2SCc2nc3ccccc3[nH]2)cc1"
105

Same again, this time with "N#Cc1ccc(/C=C/c2ccc(NC(=O)c3ccccc3NC(=O)c3ccco3)cc2)cc1"
94.72

Another: "O=C(Nc1ccccc1C(=O)Nc1ccc(/C=C/c2ccc(Cl)cc2)cc1)c1ccccc1"
57.81

Next: "N#Cc1ccc(/C=C/c2nc3ccccc3nc2SCc2nc3ccccc3[nH]2)cc1"
99.2

Next entry: "O=c1c2ccccc2nc(-c2ccco2)n1/N=C/c1ccccc1Cl"
101.3

Moving on to "C(=C\c1nc2ccccc2nc1SCc1nc2ccccc2[nH]1)/c1ccccc1"
61.44

Similarly, "O=C(Nc1ccccc1C(=O)Nc1ccc(/C=C/C=C/c2ccccc2)cc1)c1ccccc1" ?
62.47

Next record, please: "COc1ccc(OC)c(/C=C/c2nc3ccccc3nc2SCc2nc3ccccc3[nH]2)c1"
90.78

For "O=c1c2ccccc2nc(-c2ccco2)n1O" then?
105.54
